Source of measurements: paper PMC11480844

B1: H2-Kb / B5 (parent)
chain 1: TQTVSQSDAHVTVFEGDSVELRCNYSYGGSIYLSWYIQHHGHGLQFLLKYYSGNPVVQGVNGFEAEFSKSDSSFHLRKASVHWSDSAVYFCAVSLYQGGRALIFGTGTTVSVSP
chain 2: EAGVTQSPRYAVLQEGQAVSFWCDPISGHDTLYWYQQPRDQGPQLLVYFRDEAVIDNSQLPSDRFSAVRPKGTNSTLKIQSAKQGDTATYLCASSFAGGARAEQFFGPGTRLTVL
chain 3: not shown
chain 4: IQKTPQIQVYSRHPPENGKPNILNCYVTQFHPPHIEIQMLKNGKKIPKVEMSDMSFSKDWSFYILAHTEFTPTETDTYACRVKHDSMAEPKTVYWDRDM
chain 5: SIINFEKL

# Variants of: B1
# method.summary: % of reporter cells activated (NFAT-GFP), raw; also: test concentration or dose not given here
# stated.conditions: with B5; scale: % of reporter cells activated
Hi! Just check whether ratio to parent is below 1. Below gives yes (1), equal or above gives no (0).

{"columns": ["variant", "answer.label"],
 "data": [
  ["chain 5 K7R", "yes (1)"],
  ["chain 5 N4D", "no (0)"],
  ["chain 5 K7D", "no (0)"],
  ["chain 5 N4E", "yes (1)"],
  ["chain 5 F5S", "yes (1)"],
  ["chain 5 E6N", "no (0)"],
  ["chain 5 I2G", "no (0)"],
  ["chain 5 I2E", "no (0)"],
  ["chain 5 I2K", "yes (1)"],
  ["chain 5 F5C", "no (0)"],
  ["chain 5 F5I", "yes (1)"],
  ["chain 5 L8E", "no (0)"],
  ["chain 5 N4P", "yes (1)"],
  ["chain 5 S1W", "no (0)"],
  ["chain 5 E6Y", "no (0)"],
  ["chain 5 S1Q", "no (0)"],
  ["chain 5 E6A", "yes (1)"],
  ["chain 5 I3T", "yes (1)"],
  ["chain 5 F5D", "no (0)"],
  ["chain 5 S1L", "yes (1)"],
  ["chain 5 E6S", "no (0)"],
  ["chain 5 K7T", "no (0)"],
  ["chain 5 K7I", "no (0)"],
  ["chain 5 L8I", "no (0)"],
  ["chain 5 I2S", "yes (1)"],
  ["chain 5 F5N", "no (0)"],
  ["chain 5 I3K", "no (0)"],
  ["chain 5 F5L", "yes (1)"],
  ["chain 5 K7P", "yes (1)"],
  ["chain 5 S1I", "no (0)"],
  ["chain 5 L8P", "no (0)"],
  ["chain 5 E6W", "no (0)"],
  ["chain 5 K7V", "no (0)"],
  ["chain 5 K7L", "no (0)"],
  ["chain 5 I3Y", "yes (1)"],
  ["chain 5 N4G", "no (0)"],
  ["chain 5 K7Y", "no (0)"],
  ["chain 5 I2F", "yes (1)"],
  ["chain 5 L8Q", "no (0)"],
  ["chain 5 I2H", "yes (1)"],
  ["chain 5 F5G", "yes (1)"]
]}
